Molecular target: Focal adhesion kinase 1 (Homo sapiens) (UniProt Q05397)
Sequence (Q05397 whole entry, looked up): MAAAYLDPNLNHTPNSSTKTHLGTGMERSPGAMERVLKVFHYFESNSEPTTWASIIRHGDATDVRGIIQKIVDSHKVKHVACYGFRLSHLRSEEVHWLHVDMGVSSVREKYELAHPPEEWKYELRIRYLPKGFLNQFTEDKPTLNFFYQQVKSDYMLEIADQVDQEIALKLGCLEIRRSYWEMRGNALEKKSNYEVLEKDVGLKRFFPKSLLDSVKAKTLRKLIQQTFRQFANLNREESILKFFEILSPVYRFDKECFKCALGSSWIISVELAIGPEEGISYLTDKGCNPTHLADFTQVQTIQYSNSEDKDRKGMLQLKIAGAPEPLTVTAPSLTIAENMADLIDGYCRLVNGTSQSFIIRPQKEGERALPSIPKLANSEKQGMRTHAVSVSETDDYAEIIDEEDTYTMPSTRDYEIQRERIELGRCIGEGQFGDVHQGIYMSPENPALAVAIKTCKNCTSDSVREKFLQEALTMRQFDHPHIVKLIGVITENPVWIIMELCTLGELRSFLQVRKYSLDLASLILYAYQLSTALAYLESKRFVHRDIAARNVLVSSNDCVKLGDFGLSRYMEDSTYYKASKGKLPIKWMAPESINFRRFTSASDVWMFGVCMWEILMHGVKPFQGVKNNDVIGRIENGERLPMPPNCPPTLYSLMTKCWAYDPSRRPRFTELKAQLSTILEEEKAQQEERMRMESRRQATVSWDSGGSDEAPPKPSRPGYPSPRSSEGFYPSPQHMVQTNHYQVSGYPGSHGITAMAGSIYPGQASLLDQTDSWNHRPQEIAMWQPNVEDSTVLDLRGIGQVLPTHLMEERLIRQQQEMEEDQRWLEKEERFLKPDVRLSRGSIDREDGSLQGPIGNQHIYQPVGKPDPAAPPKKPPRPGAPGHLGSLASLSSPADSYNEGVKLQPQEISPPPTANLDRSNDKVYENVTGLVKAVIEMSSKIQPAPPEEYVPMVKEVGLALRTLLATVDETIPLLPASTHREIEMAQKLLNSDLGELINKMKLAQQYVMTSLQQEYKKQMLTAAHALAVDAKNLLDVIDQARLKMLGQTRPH
Test: human PTK2 activity blockers, single-point recheck – biochemical, confirmation (AID 794)
Conditions: FAK kinase biochemical inhibition assay; at 7 µM
Some of the results follow. Calls of active or inactive are those of the source. Cut-off read from the data, not from the text of the source: active = inhibition above about 19%; inactive = the rest.
Allowed answers: yes (active), no (inactive)

Query :: State the result this test recorded for O=[N+]([O-])c1ccc(Oc2ccc(F)cc2Br)c2ccncc12 .
Result :: no

Query :: // repeat for Nc1c(-c2ccc(F)cc2)cnc2ncnn12 and report
Result :: no

Query :: Do the same for COC(=O)c1c(NC(=O)CSc2nncs2)sc2c1CCCCC2 please
Result :: no

Query :: What about this compound? COCCn1c(C)cc(C(=O)CSc2ncnc3sc4c(c23)CCC4)c1C
Result :: no

Query :: Another compound: Cc1cc(NC(=O)c2cnn3cccnc23)n(-c2ccccc2)n1
Result :: no

Query :: Field entry: COc1cc(N=Cc2c(O)[nH]c3ccccc23)cc(OC)c1OC
Result :: yes

More entries:
Query :: I'd appreciate the recorded outcome for CC(=O)c1ccc(Cc2ncc(C(F)(F)F)cc2Cl)s1 from this test.
Result :: no

---

Quick reference: inhibition of the listed items.
Target: Focal adhesion kinase 1 (Homo sapiens) (UniProt Q05397)
Assay: human PTK2 activity blockers, single-point recheck – biochemical, confirmation (AID 794)
Conditions: FAK kinase biochemical inhibition assay; at 7 µM; stronger effect = higher value
This is one part of the list.
API: value field is a number in %; no unit string.

Below, 3 molecules whose answers are already recorded.
Query :: Recorded inhibition for CC(=NCc1ccco1)C1=C(O)c2ccccc2C1=O , please?
Result :: 15.2

Query :: How about this molecule: CCN(CC)S(=O)(=O)c1cc([N+](=O)[O-])ccc1NNC(=O)Nc1ccccc1
Result :: 19.2

Query :: Cc1ccc(-n2nc3ccc(NC(=O)/C=C/c4ccco4)cc3n2)cc1C ?
Result :: 5.82

New cases:
Query :: Look up inhibition for this molecule: CCCOc1ccc(NC(=O)C2CCCNC2=O)cc1 (configuration not stated)
Result :: -2.48

Query :: Follow-up item: Cc1cc2cc3c(N)[nH]nc3nc2cc1C
Result :: 20.5

Query :: What would you report for CCc1ccccc1NC(=O)CSc1nnc([C@@H](NC(=O)OC(C)(C)C)C(C)CC)o1 (some centres not stated) ?
Result :: -1.72

Query :: Try O=C(Nc1ccc(-n2ccnc2P(=O)(O)c2ccccc2)cc1)c1ccccc1Br next.
Result :: 16.2

Query :: Lookup CCc1ccc2nc3sc(C(=O)Nc4nnc(CC)s4)c(N)c3cc2c1
Result :: 16.1

---

Biological target: Focal adhesion kinase 1 (Homo sapiens)
Experiment: human PTK2 activity blockers, single-point recheck – biochemical, confirmation (AID 794)
Conditions: FAK kinase biochemical inhibition assay; at 7 µM; stronger effect = higher value
The other results are listed elsewhere or left out.
experimental readout: inhibition (%)
Numeric only. Scale: %

Query :: Endpoint output: inhibition of Clc1ccccc1CSc1nnc(-c2ccco2)c(-c2ccco2)n1 . Value?
Result :: 8.81

New cases:
Query :: Bench note: what inhibition did Cc1cccn2c(=O)c3cc(C(=O)N4COCC4(C)C)n(C)c3nc12 show?
Result :: 6.3

Query :: Next molecule up: Cc1ccc(-c2nn(C(C)(C)C)c3ncnc(N)c23)cc1
Result :: 15.6

Query :: What do you get for Cn1c(CCN2CCCCCC2)nc2cc(NC(=O)Nc3ccccc3)ccc21 ?
Result :: 7.82

Source: PubChem BioAssay AID794
